The values you see were collected from BindingDB's records for patent US12357603.

target-entity: Histone acetyltransferase KAT6B [431-2073] (Homo sapiens (Human), UniProt Q8WYB5)
Construct: 431-2073
Sequence (Q8WYB5 431-2073): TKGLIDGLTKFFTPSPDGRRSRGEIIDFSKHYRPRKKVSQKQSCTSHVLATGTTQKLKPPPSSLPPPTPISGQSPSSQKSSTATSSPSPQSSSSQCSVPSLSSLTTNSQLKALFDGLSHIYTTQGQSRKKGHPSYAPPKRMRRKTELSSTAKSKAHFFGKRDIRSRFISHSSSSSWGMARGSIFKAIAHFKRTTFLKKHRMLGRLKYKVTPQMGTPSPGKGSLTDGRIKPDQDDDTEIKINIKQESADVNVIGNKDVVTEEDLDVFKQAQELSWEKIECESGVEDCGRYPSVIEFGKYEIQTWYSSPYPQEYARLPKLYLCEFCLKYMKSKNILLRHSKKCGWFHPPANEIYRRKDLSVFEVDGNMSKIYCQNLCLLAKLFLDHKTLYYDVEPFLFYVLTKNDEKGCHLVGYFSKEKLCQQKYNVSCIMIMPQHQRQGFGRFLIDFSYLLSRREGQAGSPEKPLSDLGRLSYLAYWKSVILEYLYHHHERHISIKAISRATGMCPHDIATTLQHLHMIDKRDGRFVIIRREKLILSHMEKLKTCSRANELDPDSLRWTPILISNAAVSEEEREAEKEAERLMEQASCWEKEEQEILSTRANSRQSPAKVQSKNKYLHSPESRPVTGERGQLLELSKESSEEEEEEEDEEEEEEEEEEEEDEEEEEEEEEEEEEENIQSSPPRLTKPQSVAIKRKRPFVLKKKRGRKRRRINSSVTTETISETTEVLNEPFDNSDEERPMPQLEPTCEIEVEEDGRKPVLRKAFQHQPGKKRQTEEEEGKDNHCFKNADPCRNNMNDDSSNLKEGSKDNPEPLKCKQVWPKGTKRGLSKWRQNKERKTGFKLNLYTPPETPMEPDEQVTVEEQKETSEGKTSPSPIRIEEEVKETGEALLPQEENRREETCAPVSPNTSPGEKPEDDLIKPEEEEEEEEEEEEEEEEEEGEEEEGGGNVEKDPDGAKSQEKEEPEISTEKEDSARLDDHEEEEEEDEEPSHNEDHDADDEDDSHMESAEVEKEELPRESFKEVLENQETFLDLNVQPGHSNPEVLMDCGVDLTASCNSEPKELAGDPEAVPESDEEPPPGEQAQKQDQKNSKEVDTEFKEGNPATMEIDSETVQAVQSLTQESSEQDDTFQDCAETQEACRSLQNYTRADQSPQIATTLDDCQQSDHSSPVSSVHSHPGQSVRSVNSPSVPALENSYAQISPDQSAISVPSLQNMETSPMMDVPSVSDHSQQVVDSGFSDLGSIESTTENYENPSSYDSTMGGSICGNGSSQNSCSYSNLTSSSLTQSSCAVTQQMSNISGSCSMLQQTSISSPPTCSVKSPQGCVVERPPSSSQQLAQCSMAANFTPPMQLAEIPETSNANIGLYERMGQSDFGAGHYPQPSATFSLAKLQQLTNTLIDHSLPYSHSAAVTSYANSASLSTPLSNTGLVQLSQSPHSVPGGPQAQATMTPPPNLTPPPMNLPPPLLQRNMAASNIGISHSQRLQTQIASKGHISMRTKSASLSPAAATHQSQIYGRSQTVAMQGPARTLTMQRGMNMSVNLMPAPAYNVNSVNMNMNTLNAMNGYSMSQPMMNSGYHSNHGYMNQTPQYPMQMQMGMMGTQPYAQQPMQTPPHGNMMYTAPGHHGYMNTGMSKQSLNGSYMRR
protocol-description: Kat6b Activity Assay
test-readout: pIC50
pIC50 is defined as minus the log10 of a concentration measured in mol/L.

// query Hello, I am looking for reported pIC50 with Histone acetyltransferase KAT6B [431-2073] (Homo sapiens (Human), UniProt Q8WYB5) for CN(C)c1ccc2cc(C(=O)NS(=O)(=O)c3cc(Cl)cc4cccnc34)oc2c1 . Could you help?
// result 7.28

###

// endpoint log10 IC50 / system Histone acetyltransferase KAT6A (UniProt Q92794)
Recall that a logarithmic scale is used here: each number is log10 of IC50 in nM.

1. CN(C)c1ccc2cc(C(=O)NS(=O)(=O)c3c(Cl)cccc3Cl)oc2c1 = 2.67
2. CC(C)Oc1ccccc1S(=O)(=O)NC(=O)c1cc2cc(Br)c(N(C)C)cc2o1 = 3.89
3. O=C(NS(=O)(=O)c1ccccc1-c1ccccc1)c1cc2ccc(N3CCCC3=O)cc2o1 = 4.13
4. CN(C)c1ccc2cc(C(=O)NS(=O)(=O)c3cc(Cl)cc4cccnc34)oc2c1 = 1.97
5. CN(C)c1ccc2cc(C(=O)NS(=O)(=O)c3ccccc3-c3ccc(CO)cc3)oc2c1 = 1.76

// query Any idea what log10 IC50 came out for CN(c1ccccc1)c1ccc2cc(C(=O)NS(=O)(=O)c3ccc(Cl)cc3Cl)oc2c1 on Histone acetyltransferase KAT6A (UniProt Q92794)?
// result 3.41

// query For the record CN(C)c1ccc2cc(C(=O)NS(=O)(=O)c3ccccc3-c3ccccc3)oc2c1C#N , what value of log10 IC50 is listed for Histone acetyltransferase KAT6A (UniProt Q92794)?
// result 4.16
